Kindly supply the reported pIC50 values for the records listed here.
systemTested: KRasG12C (Homo sapiens, UniProt P01116, G12C)
Construct: biotin (biotinylated); made in house
Sequence (P01116 1-188 isoform P01116-2 G12C): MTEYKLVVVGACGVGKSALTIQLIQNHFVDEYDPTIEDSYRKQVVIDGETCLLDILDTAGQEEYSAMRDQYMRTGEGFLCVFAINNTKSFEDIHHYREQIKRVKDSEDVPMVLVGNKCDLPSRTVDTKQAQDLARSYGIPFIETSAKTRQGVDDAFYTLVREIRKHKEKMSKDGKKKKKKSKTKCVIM
protocolDescription: KRasG12C functional assay (HTRF/FRET nucleotide exchange and Raf RBD binding)
Format: biochemical
studyConditions: GDP loaded biotinylated KRasG12C, samples incubated for 4 hrs, FRET readout; single experiment or average of two or more; read-out: KRasG12C functional assay IC50
Procedure: All enzyme and substrate solutions were prepared in assay buffer containing 20 mM HEPES (pH 7.5), 5 mM MgCl2, 150 mM NaCl, and 0.01% Tween 20. […] This is detected simultaneously via the specific binding interaction between active GTPγS KRas^G12C with GST-Raf RBD which brings the europium and XL665 into close proximity enabling an increased FRET signal to be detected on a Pherastar (BMG) plate reader equipped with the HTRF filter module. […]
Numbers only, as −log10 of the molar value.

Use the examples below as a reference point.
> print(dat)
                                   compound  measuredproperty  measvalue
1  C=CC(=O)N1CCN2Cc3cc(C#N)c(-c4c(O)cccc4Cl)c(Cl)c3OC[C@H]2C1 (single isomer, unassigned) [Example 57]             pIC50       7.51
2  C#Cc1nc(-c2c(O)cccc2Cl)c(Cl)c2c1CN1CCN(C(=O)C=C)C[C@@H]1CO2 (single isomer, unassigned) [Example 120]             pIC50       7.29
3  C=CC(=O)N1CCN2Cc3c(F)c(F)c(-c4c(O)cccc4Cl)c(Cl)c3OC[C@H]2C1 (single isomer, unassigned) [Example 92]             pIC50       7.28
4  C=CC(=O)N1CCN2Cc3c(O)c(Cl)c(-c4c(O)cccc4F)c(Cl)c3OC[C@H]2C1 (single isomer, unassigned) [Example 14]             pIC50       5.09
5  C=CC(=O)N1CCN2Cc3cc(Cl)c(-c4c(C)cccc4O)c(F)c3OC[C@H]2C1 (single isomer, unassigned) [Example 60]             pIC50       4.80

We now examine a further compound.
QUERY: Field: pIC50 (KRasG12C (Homo sapiens, UniProt P01116, G12C)). Entry: C=CC(=O)N1CCN2Cc3c(c(Cl)c(-c4c(O)cccc4F)c4cnn(C)c34)OC[C@H]2C1 (single isomer, unassigned) [Example 73]
RESULT: 4.64

----------
systemTested: KRasG12C (Homo sapiens, UniProt P01116, G12C)
Construct: biotin (biotinylated); made in house
protocolDescription: KRasG12C functional assay (HTRF/FRET nucleotide exchange and Raf RBD binding)
Type: biochemical
studyConditions: GDP loaded biotinylated KRasG12C, samples incubated for 4 hrs, FRET readout; single experiment or average of two or more; read-out: KRasG12C functional assay IC50
measuredProperty: pIC50
Answers are plain numbers, as −log10 of the molar value.

> print(dat)
                                   molecule                              systemtested  measuredproperty  measvalue
1  C=CC(=O)N1CCN2Cc3cc(F)c(-c4c(F)cccc4CO)c(F)c3OC[C@H]2C1 (single isomer, unassigned) [Example 46]  KRasG12C (Homo sapiens, UniProt P01116, G12C)             pIC50       4.00
2  C=CC(=O)N1CCN2Cc3cc(OC)c(-c4c(O)cccc4F)c(Cl)c3OC[C@H]2C1 (single isomer, unassigned) [Example 31]  KRasG12C (Homo sapiens, UniProt P01116, G12C)             pIC50       6.55
3  C=CC(=O)N1CCN2Cc3c(c(Cl)c(-c4c(O)cccc4Cl)c4ncn(C)c34)OC[C@H]2C1 (single isomer, unassigned) [Example 82]  KRasG12C (Homo sapiens, UniProt P01116, G12C)             pIC50       7.21
4  C=CC(=O)N1CCN2Cc3cc(F)c(-c4c(O)ccc(F)c4F)c(Cl)c3OC[C@H]2C1 (single isomer, unassigned) [Example 39]  KRasG12C (Homo sapiens, UniProt P01116, G12C)             pIC50       6.91
5  C=CC(=O)N1CCN2Cc3c(Cl)nc(-c4c(O)cccc4F)c(Cl)c3OC[C@H]2C1 [Example 68]  KRasG12C (Homo sapiens, UniProt P01116, G12C)             pIC50       6.10

Batch: pIC50 for all items listed.
1. C=CC(=O)N1CCN2Cc3cc(F)c(-c4c(O)cccc4Cl)c(Cl)c3OC[C@H]2C1 (single isomer, unassigned) [Example 34]
2. C=CC(=O)N1CCN2Cc3cc(COC)c(-c4c(O)cccc4Cl)c(Cl)c3OC[C@H]2C1 [Example 114]
3. C=CC(=O)N1CCN2Cc3c(OCCN(C)C)cc(-c4c(O)cccc4Cl)c(F)c3OC[C@H]2C1 (single isomer, unassigned) [Example 115]
4. C=CC(=O)N1CCN2Cc3c(-n4ccnc4)cc(-c4c(O)cccc4F)c(Cl)c3OC[C@H]2C1 [Example 15]

RESULT:
[4.19, 7.08, 7.26, 5.89]

Origin of measurements: patent US12410187B2
